# method_description: inhibitors of Chlamydomonas gravitaxis, primary screen, whole organism, Chlamydomonas reinhardtii, WT vs cilia-less mutant, absorbance, 96-well (AID 463189);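 further: 0% = wild type cc124 cells in DMSO and 100% = ciliumless bld1 mutant cells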
# cond: OD600 absorbance, 2 days, at 10 µM, stronger effect = higher value
value_kind: inhibition (%)
Answers are plain numbers, in %.

Can you give me inhibition for all of these, one by one?
1. O=S(=O)(c1cccc(-c2csc(-c3ccccc3)n2)c1)N1CCOCC1
2. CCOC(=O)c1[nH]c2ccccc2c1N=CN(CC)CC
3. CSc1cc(C)nc(N(C)C(C)=O)n1
4. Nc1nc2n(n1)C(c1cccs1)CC(c1ccc(Br)cc1)N2 (stereo unspecified)
5. CCC(=O)Nc1nc2ccccc2n1Cc1ccccc1C

1: 25.2; 2: -14.4; 3: -6.47; 4: 21.9; 5: -13.6

Form field: reported inhibition of "CCCCOc1ccc(C(=O)NCC(=O)NCC(=O)OCC)cc1"
-13.2

Data provenance is PubChem BioAssay.
